Please go through the items and note down their GI50.
test system: HOP-62; experiment: NCI tumour cell line growth inhibition, 48 h
Activity calls are given as the source filed them. Rule as the data show it: active = GI50 up to about 1.1 µM and inactive = higher.

So for "COc1ccc2nc3cc(Cl)ccc3c(Sc3ccc([N+](=O)[O-])cc3C)c2c1" , the logged GI50 turned out to be > 100 µM (inactive)

So for "CC(=O)OC(C)(C)C[N+](=O)[O-]" , the logged GI50 turned out to be > 100 µM (inactive)

So for "O=C(O)CCC1(CCC(=O)O)CCCCCCCCC(CCC(=O)O)(CCC(=O)O)C(=O)C1=O" , the logged GI50 turned out to be > 100 µM (inactive)

So for "CCC/C(Cl)=N/OC(=O)Nc1cccc(F)c1" , the logged GI50 turned out to be 16.4 µM (inactive)

So for "O=C1NCc2ccccc2S(=O)(=O)n2cccc21" , the logged GI50 turned out to be > 100 µM (inactive)

So for C=C(C)C1Cc2c(cc3c(c2O)c(=O)c2ccccc2n3C)O1 (configuration not stated) , the logged GI50 turned out to be 9.12 µM (inactive)

So for CCOP(=O)(CCCC(O)CNc1nc(N)nc(Cl)c1/N=N/c1ccc(Cl)cc1)OCC (configuration not stated) , the logged GI50 turned out to be 9.89 µM (inactive)

So for "CC(C)(C)C1=NO[C@H]2[C@@H](NC(=O)c3ccccc3)CC[C@@H]12" , the logged GI50 turned out to be > 100 µM (inactive)

So for C=CC(Br)(CBr)CCC(Cl)C(C)C (configuration not stated) , the logged GI50 turned out to be 1.8 µM (inactive)

So for CCCCN(CCCC)C(=O)C(=O)C(C#N)c1ccc(C)cc1 (configuration not stated) , the logged GI50 turned out to be > 100 µM (inactive)

So for "O=S(=O)(OI(O)CC(F)(F)F)C(F)(F)F" , the logged GI50 turned out to be > 100 µM (inactive)

So for CCC1=CCN(c2cc(C)ccn2)OC1c1ccc(OC)cc1 (configuration not stated) , the logged GI50 turned out to be 44.3 µM (inactive)

So for Fc1ccccc1C1SCc2nc3cc4ccccc4cc3n21 (configuration not stated) , the logged GI50 turned out to be > 100 µM (inactive)

So for "CCN(CC)CCCOc1cc2c(cc1OC)C(=O)N1CCC[C@H]1C=N2" , the logged GI50 turned out to be 23.3 µM (inactive)

So for COc1ccc(C2Oc3c(OC)cc(CCCO)cc3C2CO)cc1OC (configuration not stated) , the logged GI50 turned out to be > 100 µM (inactive)

So for "COc1ccn(CC(=O)c2cc3ccccc3[nH]2)c(=O)n1" , the logged GI50 turned out to be > 100 µM (inactive)

So for "Nc1ccc(C(=O)O)c2[nH]c3ccccc3c(=O)c12" , the logged GI50 turned out to be > 100 µM (inactive)

So for "C[C@H](Nc1nc(N)c(N=O)c(=O)n1C)C(=O)O" , the logged GI50 turned out to be > 10 µM (inactive)

So for "COc1cc2oc(=O)cc(C)c2c(OC)c1OC(C)=O" , the logged GI50 turned out to be > 100 µM (inactive)

So for "O=C1CCC(=O)N1CNc1cccc(NCN2C(=O)CCC2=O)c1" , the logged GI50 turned out to be > 100 µM (inactive)

So for "COc1ccc2cc(-c3ccc(OC)c(OC)c3)c(=O)oc2c1" , the logged GI50 turned out to be 69.5 µM (inactive)

So for COC1CCC(OS(C)(=O)=O)CO1 (configuration not stated) , the logged GI50 turned out to be > 100 µM (inactive)

So for CCCOC(=O)CCC(NC(=O)c1ccc(Nc2nc3ccccc3nc2-c2cccs2)cc1)C(=O)OCCC (configuration not stated) , the logged GI50 turned out to be > 100 µM (inactive)

So for "CCN(CC)CCCCC1CCN(CC(=O)N2c3ccccc3NC(=O)c3ccccc32)CC1" , the logged GI50 turned out to be > 100 µM (inactive)

So for CC1CN=C(N(C(=O)Nc2ccc(Cl)c(Cl)c2)c2ccccc2)S1 (configuration not stated) , the logged GI50 turned out to be > 100 µM (inactive)

So for COC(=O)C1C2CCCN2OC1(C)CO (configuration not stated) , the logged GI50 turned out to be > 100 µM (inactive)

So for COCOCC[C@@H]1CC=CC(NC(=O)OCc2ccccc2)C1/C=C/C(=O)CCC1OCCO1 (some centres not stated) , the logged GI50 turned out to be > 79.8 µM (inactive)

So for COc1cc(C2c3cc4c(cc3[C@@H](NCCN3CCOCC3)C3COC(=O)[C@H]23)OCO4)cc(OC)c1O (some centres not stated) , the logged GI50 turned out to be 0.782 µM (active)

So for O=C(O)C1Cc2c([nH]c3ccccc23)C=N1 (configuration not stated) , the logged GI50 turned out to be > 100 µM (inactive)

So for "CC(=O)c1cc(I)c(O)c2ncccc12" , the logged GI50 turned out to be 4.36 µM (inactive)

So for CC(=O)OCC1OC(n2c3c(cc(C#N)c2=S)CCCCCC3)C(OC(C)=O)C(OC(C)=O)C1OC(C)=O (configuration not stated) , the logged GI50 turned out to be > 100 µM (inactive)

So for "CN(C)CCn1c(=O)c2ccc3c4c(nn3CCN(C)C)c3cc(O)ccc3n(c1=O)c24" , the logged GI50 turned out to be < 0.0316 µM (active)

So for Cc1ccc2[nH]c3c(c2c1)C1CCC(C(C)(C)C)CC1C1C(=O)N(c2ccc(Oc4ccccc4)cc2)C(=O)C31 (configuration not stated) , the logged GI50 turned out to be 22.4 µM (inactive)

So for C=C1C(=O)O[C@@H]2/C=C(C)/C=C\[C@@H]3O[C@@]3(C)C[C@@H](O)C12 (some centres not stated) , the logged GI50 turned out to be 36.1 µM (inactive)

So for "CC(=O)Oc1c2oc3ccc(Cl)cc3c(=O)c2c(O)c2ccsc12" , the logged GI50 turned out to be > 100 µM (inactive)

So for CC(=O)NC(C)(C)C1CC=C(C)CC1 (configuration not stated) , the logged GI50 turned out to be > 100 µM (inactive)

So for COc1ccc(C(c2cc(OC)c(OC)c(OC)c2)N2C(=O)CCC2C(=O)O)cc1 (configuration not stated) , the logged GI50 turned out to be > 100 µM (inactive)

So for "CN(CCN1C(=O)c2cccc3cccc(c23)C1=O)CCN1C(=O)c2cccc3cccc(c23)C1=O" , the logged GI50 turned out to be 12.5 µM (inactive)

So for "Oc1ccc(-c2csc(N/N=C3\NC/C(=C/c4ccc5c(c4)OCO5)S3)n2)cc1O" , the logged GI50 turned out to be 22.1 µM (inactive)

So for CC(=O)O[C@H]1[C@H](OC(=O)CC(C)(O)CC(=O)O)C[C@]2(C)C3=C(CCC2C1(C)C)[C@]1(C)CC[C@H]([C@H]2CC[C@H](C(C)(C)O)OC2O)[C@@]1(C)[C@@H](O)C3 (some centres not stated) , the logged GI50 turned out to be 16.3 µM (inactive)

So for CCCCCCCCCCCCCC(=O)OCC1OC(n2cc(F)c(=O)[nH]c2=O)C(NC(=O)OCc2ccccc2)C(OC(=O)CCCCCCCCCCCCC)C1O (configuration not stated) , the logged GI50 turned out to be > 100 µM (inactive)

So for "NS(=O)(=O)c1ccc(NC(NC(=O)C(C(F)(F)F)C(F)(F)F)(C(F)(F)F)C(F)(F)F)cc1" , the logged GI50 turned out to be > 100 µM (inactive)

###

system: HCT-116; test: NCI tumour cell line growth inhibition, 48 h
Calls of active or inactive are those of the source. Rule as the data show it: active = GI50 up to about 1.1 µM and inactive = higher.
Log the outcome using a class from active, inactive

Task item: Check the results log: what was the call for "O=c1c(-c2ccccc2F)coc2cc(F)ccc12" ?
Reply: inactive

Task item: Check the results log: what was the call for "O=C(Nn1c(-c2ccccc2)nc2ccccc2c1=O)c1ccccc1O" ?
Reply: inactive

Task item: Check the results log: what was the call for "Oc1ccc(-c2csc(N/N=C3\NC/C(=C/c4ccc5c(c4)OCO5)S3)n2)cc1O" ?
Reply: inactive

Task item: Check the results log: what was the call for "Sc1nnc(-c2cccnc2)[nH]1" ?
Reply: inactive

Task item: Check the results log: what was the call for "O=C(N/N=C\c1cccc2ccccc12)Nc1cccc2ccccc12" ?
Reply: inactive

Task item: Check the results log: what was the call for "O=C(NNc1ccccc1)c1ccc(Cl)c(Cl)c1" ?
Reply: inactive

Task item: Check the results log: what was the call for "Cc1c(Cl)nc(Cl)nc1Cl" ?
Reply: inactive

Task item: Check the results log: what was the call for "CN(C)CCn1c(=O)c2ccc3c4c(nn3CCN(C)C)c3cc(O)ccc3n(c1=O)c24" ?
Reply: active

Task item: Check the results log: what was the call for CC(=O)NC(C)(C)C1CC=C(C)CC1 (centres undefined) ?
Reply: inactive

Task item: Check the results log: what was the call for "O=C(O)c1ccc(S(=O)(=O)c2ccccc2[N+](=O)[O-])cc1" ?
Reply: inactive

Task item: Check the results log: what was the call for "CCCCCCCCCCCCCCCCCC[N+](C)(C)Cc1ccc(C[N+](C)(C)CCCCCCCCCCCCCCCCCC)cc1" ?
Reply: inactive

Task item: Check the results log: what was the call for NC(=O)CCC(Nc1c2ccccc2nc2ccccc12)C(=O)O (centres undefined) ?
Reply: inactive

Task item: Check the results log: what was the call for CC(C(=O)C(C)O[Si](c1ccccc1)(c1ccccc1)C(C)(C)C)=P(c1ccccc1)(c1ccccc1)c1ccccc1 (centres undefined) ?
Reply: inactive

Task item: Check the results log: what was the call for "CC(=O)c1cc(I)c(O)c2ncccc12" ?
Reply: inactive

Task item: Check the results log: what was the call for "COc1ccc(-c2[nH]c3ccccc3c2CCNS(=O)(=O)c2ccc(C)cc2)cc1" ?
Reply: inactive

Task item: Check the results log: what was the call for CCSc1ncnc2c(C3OC(CO)C(O)C3O)nsc12 (centres undefined) ?
Reply: inactive

Task item: Check the results log: what was the call for "C#CCOCn1cc(C)c(=O)[nH]c1=O" ?
Reply: inactive

Task item: Check the results log: what was the call for "c1ccc2nc3c(nc2c1)sc1nc2ccccc2n13" ?
Reply: inactive

Task item: Check the results log: what was the call for "O=C(NCCNCCNC(=O)c1cc(-c2ccccc2)nc2ccccc12)c1cc(-c2ccccc2)nc2ccccc12" ?
Reply: inactive

Task item: Check the results log: what was the call for "O=P(O)(OCC(O)O)OCC(O)O" ?
Reply: inactive

Task item: Check the results log: what was the call for "O=c1c2cc(I)ccc2nc(-c2cccs2)n1Nc1ccccc1" ?
Reply: inactive

Task item: Check the results log: what was the call for "O=c1[nH]cc(NCCCl)c(=O)[nH]1" ?
Reply: inactive

Task item: Check the results log: what was the call for O=C(O)C1Cc2c([nH]c3ccccc23)C=N1 (centres undefined) ?
Reply: inactive

Task item: Check the results log: what was the call for "CCN(CC)CCCNC(=O)c1cc2cc(NC(=O)c3cc4cc([N+](=O)[O-])ccc4[nH]3)ccc2[nH]1" ?
Reply: inactive

The measurements presented in this section are drawn from ChEMBL document CHEMBL1201862.
